Biological target: USP25 (USP25-His6, Boston Biochem E-546) (Homo sapiens, UniProt Q9UHP3)
Construct: His6; purchased Boston Biochem E-546
Sequence (Q9UHP3 whole entry): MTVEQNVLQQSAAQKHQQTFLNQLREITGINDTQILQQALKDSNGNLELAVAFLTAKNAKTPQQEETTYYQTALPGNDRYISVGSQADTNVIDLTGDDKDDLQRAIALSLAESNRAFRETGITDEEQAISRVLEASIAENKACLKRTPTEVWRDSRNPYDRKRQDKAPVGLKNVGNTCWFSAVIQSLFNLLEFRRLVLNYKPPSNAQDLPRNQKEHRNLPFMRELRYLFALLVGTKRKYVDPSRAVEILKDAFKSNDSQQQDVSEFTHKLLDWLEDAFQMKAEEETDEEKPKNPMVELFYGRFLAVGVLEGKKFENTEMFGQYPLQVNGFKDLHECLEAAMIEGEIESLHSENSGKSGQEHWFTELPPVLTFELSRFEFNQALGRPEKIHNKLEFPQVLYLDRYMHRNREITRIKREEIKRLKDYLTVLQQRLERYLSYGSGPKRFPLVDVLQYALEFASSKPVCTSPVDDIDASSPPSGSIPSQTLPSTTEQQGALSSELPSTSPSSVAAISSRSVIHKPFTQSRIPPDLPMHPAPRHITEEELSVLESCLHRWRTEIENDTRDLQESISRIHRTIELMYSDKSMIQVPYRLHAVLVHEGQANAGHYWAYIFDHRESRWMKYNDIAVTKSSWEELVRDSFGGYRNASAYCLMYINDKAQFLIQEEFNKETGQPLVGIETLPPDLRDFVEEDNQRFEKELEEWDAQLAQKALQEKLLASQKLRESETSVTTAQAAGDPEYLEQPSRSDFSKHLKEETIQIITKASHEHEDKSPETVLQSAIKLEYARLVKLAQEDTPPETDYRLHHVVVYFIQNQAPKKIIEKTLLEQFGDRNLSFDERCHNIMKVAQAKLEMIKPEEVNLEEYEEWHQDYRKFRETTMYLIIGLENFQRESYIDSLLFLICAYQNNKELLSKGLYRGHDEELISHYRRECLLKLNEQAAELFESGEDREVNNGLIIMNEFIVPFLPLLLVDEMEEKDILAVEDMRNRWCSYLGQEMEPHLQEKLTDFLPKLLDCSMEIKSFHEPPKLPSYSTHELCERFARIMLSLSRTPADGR
Assay: Ubiquitin-Rhodamine 110 Assay for USP25 Activity, Example A-2
Format: biochemical
Details: Ubiquitin-Rhodamine 110 assay, Example A-2; read-out: USP25 A-2 IC50 range
For each record, write down the corresponding IC50.

Consider the worked cases shown below.
1) Cc1ccc2c(N)c(C(=O)N[C@H]3CCc4cc(N5CC6CCC(C5)N6)ccc4C3)oc2n1 : > 2000 nM
2) O=C(N[C@H]1COc2cc(N3CCNCC3)ccc2C1)c1ccc(NCc2cccc(C(F)(F)F)c2)nc1 : 50 to 200 nM

Below are 2 compounds. Give each one its IC50.
1. CCn1ccc2cc(C(=O)N[C@H]3CCc4cc(N5CC6CCC(C5)N6)ccc4C3)cnc21 (single isomer, unassigned)
2. COC[C@H]1CN(c2ccc3c(n2)CC[C@H](NC(=O)c2sc4nc(C)ccc4c2N)C3)C[C@H]1N (single isomer, unassigned)

> 2000 nM
200 to 2000 nM

Below are 3 compounds. Give each one its IC50.
1. COC[C@]1(C)CN(c2ccc3c(n2)CC[C@H](NC(=O)c2sc4nc(C)ccc4c2N)C3)C[C@@H]1N
2. Nc1c(C(=O)N[C@H]2COc3cc(N4CCNCC4)ccc3C2)sc2nc(C3CC3)sc12
3. Cc1cnc2c(N)c(C(=O)N[C@H]3CCc4cc(N5CC6COCC(C5)N6)ccc4C3)sc2n1

200 to 2000 nM
200 to 2000 nM
> 2000 nM

Below are 3 compounds. Give each one its IC50.
1. [2H]C1([2H])NC([2H])([2H])C([2H])([2H])N(c2cc(F)c3c(c2)OC[C@H](NC(=O)c2sc4nc(C)ccc4c2N)C3)C1([2H])[2H]
2. CCO[C@H]1CN(c2ccc3c(n2)CC[C@H](NC(=O)c2sc4nc(C)ccc4c2N)C3)C[C@@H]1N
3. Cc1nc2sc(C(=O)N[C@H]3CCc4cc(N5CC6CCC(C5)N6)ccc4C3)c(N)c2cc1F (single isomer, unassigned)

1: 50 to 200 nM; 2: > 2000 nM; 3: 200 to 2000 nM

* * *

Biological target: USP25 (USP25-His6, Boston Biochem E-546) (Homo sapiens)
Construct: His6; purchased Boston Biochem E-546
Assay: Ubiquitin-Rhodamine 110 Assay for USP25 Activity, Example A-2
Type: biochemical
Settings: Ubiquitin-Rhodamine 110 assay, Example A-2; read-out: USP25 A-2 IC50 range
For each record, write down the corresponding IC50.

1. Cc1ccc2c(N)c(C(=O)N[C@H]3COc4c(C#N)c(N5CC6CNCC(C5)O6)cc(F)c4C3)sc2n1 [Example 96] : 0.05 to 0.2 µM
2. CO[C@@]12CNC[C@@H]1CN(c1ccc3c(c1)OC[C@H](NC(=O)c1sc4nc(C)ccc4c1N)C3)C2 [Example 292] : 0.2 to 2 µM
3. CO[C@@]1(C)CN(c2ccc3c(n2)CC[C@H](NC(=O)c2sc4nc(C)ccc4c2N)C3)C[C@@H]1N [Example 210] : > 2 µM
4. O=C(N[C@H]1COc2cc(N3CCNCC3)ccc2C1)c1cn2nc(Cl)ccc2n1 [Example 464] : > 2 µM

Below are 7 compounds. Give each one its IC50.
1. Cc1cnc2c(N)c(C(=O)N[C@@H]3CCc4cc(N5CC6CCC(C5)N6)cc(F)c4C3)sc2n1 (single isomer, unassigned) [Example 11-14]
2. Cc1ccc2c(N)c(C(=O)N[C@H]3COc4cc(N5CC6CCC(C5)N6)cc(F)c4C3)oc2n1 [Example 170]
3. CCn1ccc2cc(C(=O)N[C@@H]3CCc4cc(N5CC6CCC(C5)N6)ccc4C3)cnc21 (single isomer, unassigned) [Example 11-10]
4. CO[C@@H]1CN(c2cc(F)c3c(c2)OC[C@H](NC(=O)c2sc4nc(C)ccc4c2N)C3)C[C@@H]1N [Example 145]
5. CN[C@H]1CN(c2ccc3c(c2)OC[C@H](NC(=O)c2sc4nc(C)ccc4c2N)C3)C[C@@H]1OC [Example 212]
6. O=C(N[C@H]1CCc2cc(N3CC4CCC(C3)N4)cc(F)c2C1)c1cnc2c(c1)[C@H]1C[C@H]1CN2 [Example 192]
7. Cc1ccc2c(N)c(C(=O)N[C@H]3COc4c(C#N)c(N5CC6CCC(C5)N6)cc(F)c4C3)sc2n1 [Example 95]

["0.2 to 2 µM", "> 2 µM", "0.2 to 2 µM", "0.2 to 2 µM", "0.2 to 2 µM", "0.05 to 0.2 µM", "0.2 to 2 µM"]

Below are 3 compounds. Give each one its IC50.
1. Cc1ccc2c(N)c(C(=O)N[C@H]3COc4cc(N5C[C@H](N)CC[C@H]5C(F)(F)F)ccc4C3)sc2n1 [Example 247]
2. Cc1ccc2c(N)c(C(=O)N[C@H]3COc4cc(N5CC[C@@H](C(=O)O)C5)ccc4C3)sc2n1 [Example 6-2]
3. Cc1cnc2c(N)c(C(=O)N[C@H]3CCc4nc(N5C[C@H](N)C6(COC6)C5)ccc4C3)sc2n1 [Example 365]

0.05 to 0.2 µM
> 2 µM
0.2 to 2 µM
